Experimental system: Hypoxia-inducible factor 1-alpha (Homo sapiens)
Experimental details: Inhibition of hypoxia-induced HIF1alpha activation in human Hep3B cells after 16 hrs by HRE-luciferase reporter assay
Experimental parameters: hep 3b2
pIC50: −log10 of the molar value.
Parameter measured: pIC50

Use the examples below as a reference point.
CC1(C)Oc2cc(OC(=O)c3cccc(OCc4ccccc4)c3)ccc2CC1O (stereo not given)	5.28
CCOC(=O)COc1ccc(-c2cc3cc4c(cc3o2)OC(C(C)(C)O)C4)cc1 (stereo not given)	7.27
CC1(C)Oc2cc(OC(=O)c3cc(OCc4ccccc4)cc(OCc4ccccc4)c3)ccc2CC1O (stereo not given)	5.59
COc1cc(OC)cc(-c2cc3cc4c(cc3o2)OC(C(C)(C)O)C4)c1 (stereo not given)	8.00
CC(C)(O)C1Cc2cc3cc(-c4ccc(O)cc4)oc3cc2O1 (stereo not given)	8.38

a = CC(C)(O)C1Cc2cc3cc(-c4cc(O)cc(O)c4)oc3cc2O1 (racemic) [MORACIN O]
b = COc1cccc(-c2ccc(C(=O)Oc3ccc4c(c3)OC(C)(C)C(O)C4)cc2)c1 (stereo not given)
Please tell me which of the two, a or b , has the higher reported pIC50 value. Indicate your choice by writing its label.
a

###

pIC50 reference
Experimental system: Hypoxia-inducible factor 1-alpha (Homo sapiens)
Experimental details: Inhibition of hypoxia-induced HIF1alpha activation in human Hep3B cells after 16 hrs by HRE-luciferase reporter assay
Experimental parameters: hep 3b2
pIC50: −log10 of the molar value.

Look over these answered cases.
CC(C)(O)C1Cc2ccc(OC(=O)c3ccc(Br)cc3)cc2O1 (stereo not drawn)	< 4.52
CC(C)(O)C1Cc2ccc(OC(=O)c3cc(O)cc(O)c3)cc2O1 (stereo not drawn)	< 4.52

Pending compound:
Dear colleague, I am looking for the recorded pIC50 of the following compound: Cn1cncc1-c1cc2cc3c(cc2o1)OC(C(C)(C)O)C3 (stereo not drawn)
< 7.52

###

Experimental system: Hypoxia-inducible factor 1-alpha (Homo sapiens, UniProt Q16665)
Sequence (Q16665 whole entry): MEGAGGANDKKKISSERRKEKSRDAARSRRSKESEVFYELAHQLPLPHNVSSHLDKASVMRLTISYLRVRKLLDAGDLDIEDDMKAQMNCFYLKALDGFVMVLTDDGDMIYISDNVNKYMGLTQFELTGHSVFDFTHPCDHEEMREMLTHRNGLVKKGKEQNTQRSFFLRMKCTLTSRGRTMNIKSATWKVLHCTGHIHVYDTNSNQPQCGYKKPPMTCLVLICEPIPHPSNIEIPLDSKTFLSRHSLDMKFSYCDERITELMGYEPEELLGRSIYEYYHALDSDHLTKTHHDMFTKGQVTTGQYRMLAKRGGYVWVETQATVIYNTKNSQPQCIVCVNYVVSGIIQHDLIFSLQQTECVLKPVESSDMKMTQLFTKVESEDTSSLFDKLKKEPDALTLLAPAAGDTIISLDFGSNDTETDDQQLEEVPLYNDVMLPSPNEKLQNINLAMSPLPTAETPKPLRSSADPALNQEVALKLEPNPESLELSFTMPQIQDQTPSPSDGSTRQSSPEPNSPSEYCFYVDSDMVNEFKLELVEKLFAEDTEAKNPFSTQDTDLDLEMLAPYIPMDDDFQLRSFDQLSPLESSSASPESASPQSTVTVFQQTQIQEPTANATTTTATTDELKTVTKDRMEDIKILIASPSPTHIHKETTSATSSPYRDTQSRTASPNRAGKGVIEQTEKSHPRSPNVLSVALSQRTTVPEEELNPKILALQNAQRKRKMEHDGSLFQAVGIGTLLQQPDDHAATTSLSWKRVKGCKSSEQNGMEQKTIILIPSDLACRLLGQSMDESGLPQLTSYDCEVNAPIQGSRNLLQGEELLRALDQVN
Experimental details: Inhibition of hypoxia-induced HIF1alpha activation in human Hep3B cells after 16 hrs by HRE-luciferase reporter assay
Experimental parameters: hep 3b2
pIC50: −log10 of the molar value.
Parameter measured: pIC50

CC(C)(O)C1Cc2cc3cc(-c4ccccc4)oc3cc2O1 (stereo not drawn)	7.27
CC(C)(O)C1Cc2cc3cc(-c4cccc(O)c4)oc3cc2O1 (stereo not drawn)	7.34
